Each entry below lists one item and its recorded MIC50 value.
test system: B. anthracis sterne; experiment: microbe, parasite or virus in culture; format: cell-based; conditions: Bacillus anthracis, read-out: MIC50 B. anth

structure smiles string	unit spec	comparator	MIC50
Nc1c(C(=O)Nc2cc(Cl)ccc2Cl)sc2nc(-c3cccs3)ccc12	µM	=	10
O=C(CCCC(=O)Nc1ccc(Br)cc1)N/N=C/c1c2ccccc2cc2ccccc12	µM	=	15
Nc1c(C(=O)Nc2ccc(F)cc2Cl)sc2nc(-c3ccc(F)cc3)ccc12	µM	=	80
Nc1c(C(=O)Nc2cccc(Cl)c2)sc2nc(-c3ccncc3)ccc12	µM	>	160
Nc1c(C(=O)Nc2cccc(F)c2)sc2nc(-c3cccs3)ccc12	µM	=	80
Nc1c(C(=O)Nc2ccc(Cl)cc2F)sc2nc(-c3cccs3)ccc12	µM	=	10

---

target: baNadD (Bacillus anthracis, UniProt C3L5T6); assay: biochemical; assay type: biochemical; conditions: read-out: IC50 baNadD
Sequence (C3L5T6 whole entry, looked up): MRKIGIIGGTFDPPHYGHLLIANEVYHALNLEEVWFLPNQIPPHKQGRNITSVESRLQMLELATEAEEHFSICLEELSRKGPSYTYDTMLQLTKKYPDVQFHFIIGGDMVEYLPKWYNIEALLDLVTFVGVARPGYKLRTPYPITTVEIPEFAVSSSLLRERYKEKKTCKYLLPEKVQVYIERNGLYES
Each entry below lists one item and its recorded IC50 value.
observation type: IC50 (µM)

structure smiles string	assayed system	readout number
O=C(CCC(=O)Nc1ccccc1Br)N/N=C/c1c2ccccc2cc2ccccc12	baNadD (Bacillus anthracis, UniProt C3L5T6)	25
O=C(CCC(=O)Nc1ccc(Br)cc1)N/N=C/c1ccc(F)cc1	baNadD (Bacillus anthracis, UniProt C3L5T6)	122
O=C(CCC(=O)Nc1ccc(Br)cc1)N/N=C/c1cccc(Br)c1	baNadD (Bacillus anthracis, UniProt C3L5T6)	170
COc1ccc(/C(C)=N/NC(=O)CNc2cc(Br)c(C)c(Br)c2)c(OC)c1	baNadD (Bacillus anthracis, UniProt C3L5T6)	30
O=C(CCC(=O)Nc1cccc(Br)c1)N/N=C/c1c2ccccc2cc2ccccc12	baNadD (Bacillus anthracis, UniProt C3L5T6)	4

---

biological target: baNadD (Bacillus anthracis, UniProt C3L5T6); assay: biochemical; assay type: biochemical
Each entry below lists one item and its recorded […]. anthracis value.

compound	assayed system	unit spec	[…]. anthracis
O=C(NNC(=O)c1ccco1)c1cccc(I)c1	baNadD (Bacillus anthracis, UniProt C3L5T6)	%	7
O=C(CSc1nnc(-c2ccncc2)[nH]1)Nc1ccccc1Cl	baNadD (Bacillus anthracis, UniProt C3L5T6)	%	0
CCOc1ccc(S(=O)(=O)Nc2cccnc2)cc1	baNadD (Bacillus anthracis, UniProt C3L5T6)	%	22
O=C(O)C1CCCN(S(=O)(=O)c2cccc([N+](=O)[O-])c2)C1 (centres unmarked)	baNadD (Bacillus anthracis, UniProt C3L5T6)	%	0
Cc1ccc2nc(NC(=S)NC(=O)c3cccs3)sc2c1	baNadD (Bacillus anthracis, UniProt C3L5T6)	%	26

---

biological target: baNadD (Bacillus anthracis); assay: biochemical; type: biochemical

structure smiles string	[…]. anthracis / %
NS(=O)(=O)c1ccc(CCNC(=O)c2cccc(Cl)c2)cc1	14
CCS(=O)(=O)n1nc(-c2ccc(OC)cc2)nc1N	0
Oc1ccc(Br)cc1/C=N/Nc1nnn[nH]1	0
O=C(O)CCC(=O)NNC(=O)c1cccc(O)c1	0
O=C(CSc1nc2ccccc2c(=O)[nH]1)NCc1ccco1	0

---

Each entry below lists one item and its recorded […]. anthracis value.
biological target: baNadD (Bacillus anthracis, UniProt C3L5T6); experiment: biochemical; format: biochemical

compound	[…]. anthracis [%]
Nc1nnc(SCC(=O)Nc2ccc(Cl)c(Cl)c2)s1	0
CC(=O)Nc1ccc(NS(=O)(=O)c2ccc(O)c(C(=O)O)c2)cc1	0
CC(c1ccccc1)c1nnc(N)s1 (stereo not shown)	18
O=C(Nc1ccc(Cl)cn1)c1cccnc1	0
O=C(O)CCSCCc1ccncc1	18
COC(=O)c1cc(O)c(C(=O)Nc2ccc(Cl)c(Cl)c2)s1	24
O=C(O)c1ccccc1C(=O)c1cccs1	22
NS(=O)(=O)c1cc(C(=O)OCC(=O)c2ccccc2)ccc1Cl	22
O=S(=O)(Nc1ccc(Cl)cc1)c1ccc(Cl)s1	0
O=c1[nH]c2ccc(/N=C/c3cc(Cl)ccc3O)cc2[nH]1	10

---

Each entry below lists one item and its recorded inhibition at 50 µM value.
target: baNadD (Bacillus anthracis, UniProt C3L5T6); test: biochemical; format: biochemical; settings: read-out: INHIBITION (%) B. anthracis

molecule	inhibition at 50 µM (%)
COc1ccc(/C(C)=N/NC(=O)CNc2cc(Br)c(C)c(Br)c2)c(OC)c1	86
Nc1c(C(=O)Nc2ccc(Cl)cc2)sc2nc(-c3ccc(F)cc3)ccc12	28
O=C(CCC(=O)Nc1ccccc1Br)N/N=C/c1c2ccccc2cc2ccccc12	100
Nc1c(C(=O)Nc2cccc(Cl)c2)sc2nc(-c3cccs3)ccc12	89
Cc1c(Cl)cccc1N/C=C1\C(=O)Nc2ccccc21	36
O=C1Nc2ccccc2/C1=C/Nc1ccc(F)cc1F	28
O=C(CCC(=O)Nc1ccc(Br)cc1)N/N=C/C=C/c1ccccc1	75
Nc1c(C(=O)Nc2ccc(F)c(F)c2)sc2nc(-c3ccc(F)cc3)ccc12	5
O=C1Nc2ccccc2/C1=C/Nc1cccc(Cl)c1	45
O=C(CCC(=O)Nc1ccc(Br)cc1)N/N=C/c1cccc(Br)c1	29
CCc1ccc(N/C=C2\C(=O)Nc3ccccc32)cc1	17
Cc1ccc(NC(=O)CCC(=O)N/N=C/c2cccc(Br)c2)cc1	74
Cc1cc(C)cc(N/C=C2\C(=O)Nc3ccccc32)c1	32
NC(=O)c1sc2nc(-c3ccc(F)cc3)cc(-c3ccccc3)c2c1N	58
O=C(CCC(=O)Nc1cccc(Br)c1)N/N=C/c1cccc(Br)c1	53
Cc1ccc(N/C=C2\C(=O)Nc3ccccc32)cc1	38
Cc1ccc(N/C=C2\C(=O)Nc3ccccc32)c(C)c1	29
Nc1c(C(=O)Nc2ccc(F)c(Cl)c2)sc2nc(-c3ccncc3)ccc12	83
CCc1cccc(C)c1N/C=C1\C(=O)Nc2ccccc21	13
CC(C)N/C=C1\C(=O)Nc2ccccc21	9
Nc1c(C(=O)Nc2ccc(F)cc2F)sc2nc(-c3ccncc3)ccc12	20
CC(=O)c1cccc(N/C=C2\C(=O)Nc3ccccc32)c1	19
Nc1c(C(=O)Nc2cccc(F)c2)sc2nc(-c3ccc(F)cc3)ccc12	60
Nc1c(C(=O)Nc2ccc(Cl)cc2Cl)sc2nc(-c3ccncc3)ccc12	79
CC(N/C=C1\C(=O)Nc2ccccc21)c1ccccc1 (centres unmarked)	18
CC(C)c1ccc(N/C=C2\C(=O)Nc3ccccc32)cc1	42
Nc1c(C(=O)Nc2cccc(F)c2)sc2nc(-c3cccs3)ccc12	100
COc1cccc(N/C=C2\C(=O)Nc3ccccc32)c1	1
O=C1Nc2ccccc2/C1=C/Nc1ccc(F)cc1	49
Cc1ccc(N/C=C2\C(=O)Nc3ccccc32)c(Cl)c1	14
O=C1Nc2ccccc2/C1=C/NCCc1ccccc1	4
Nc1c(C(=O)Nc2ccc(F)cc2F)sc2nc(-c3cccs3)ccc12	83
Nc1c(C(=O)Nc2cc(Cl)cc(Cl)c2)sc2nc(-c3cccs3)ccc12	90
CCc1ccccc1N/C=C1\C(=O)Nc2ccccc21	42
Cc1cccc(N/C=C2\C(=O)Nc3ccccc32)c1C	26
O=C(CCC(=O)Nc1ccc(Br)cc1)N/N=C/c1ccc(F)cc1	22
O=C(CCC(=O)Nc1ccc(I)cc1)N/N=C/c1c2ccccc2cc2ccccc12	88
O=C(CCC(=O)Nc1ccc(F)cc1)N/N=C/c1ccc(O)cc1	29
Cc1cccc(N/C=C2\C(=O)Nc3ccccc32)c1	24
Nc1c(C(=O)Nc2ccc(F)cc2)sc2nc(-c3ccncc3)ccc12	40
Nc1c(C(=O)Nc2ccc(F)c(Cl)c2)sc2nc(-c3ccc(F)cc3)ccc12	26

---

biological target: baNadD (Bacillus anthracis, UniProt C3L5T6); assay: biochemical; format: biochemical

molecule	[…]. anthracis (%)
NC(N)=NS(=O)(=O)c1ccc(NC(=O)c2cccc([N+](=O)[O-])c2)cc1 [compound 268]	0
O=C(O)c1ccc(-c2ccccc2F)o1 [compound 234]	0
Nc1cc(=O)[nH]c(SCC(=O)Nc2ccc(S(N)(=O)=O)cc2)n1 [compound 164]	32
c1ccc2[nH]c(SCc3cn4ccsc4n3)nc2c1 [compound 143]	2
NS(=O)(=O)c1ccc(Nc2nc(-c3ccc(O)c(O)c3)cs2)cc1 [compound 010]	89

---

biological target: ecNadD (Escherichia coli (strain K12)); assay: biochemical; type: biochemical; conditions: read-out: INHIBITION (%) E. coli
Each entry below lists one item and its recorded inhibition at 100 µM value.

compound	assayed system	inhibition at 100 µM (%)
Nc1c(C(=O)Nc2ccc(Cl)cc2)sc2nc(-c3ccncc3)ccc12	ecNadD (Escherichia coli (strain K12))	0
O=C(CCC(=O)Nc1ccc(Br)cc1)N/N=C/c1cccc(Br)c1	ecNadD (Escherichia coli (strain K12))	67
O=C1Nc2ccccc2/C1=C/NCCc1ccccc1	ecNadD (Escherichia coli (strain K12))	7
Nc1c(C(=O)Nc2ccc(Cl)cc2Cl)sc2nc(-c3ccncc3)ccc12	ecNadD (Escherichia coli (strain K12))	84
CC(=O)c1cccc(N/C=C2\C(=O)Nc3ccccc32)c1	ecNadD (Escherichia coli (strain K12))	4
COc1ccc(/C(C)=N/NC(=O)CNc2cc(Br)c(C)c(Br)c2)c(OC)c1	ecNadD (Escherichia coli (strain K12))	70
CC(/C=N/NC(=O)CCC(=O)Nc1ccc(Br)cc1)c1ccc2ccccc2c1 (stereo not drawn)	ecNadD (Escherichia coli (strain K12))	78
Cc1ccc(N/C=C2\C(=O)Nc3ccccc32)cc1Cl	ecNadD (Escherichia coli (strain K12))	24
O=C(CCC(=O)Nc1cccc(Br)c1)N/N=C/c1cccc(Br)c1	ecNadD (Escherichia coli (strain K12))	72
COc1ccc(N/C=C2\C(=O)Nc3ccccc32)cc1	ecNadD (Escherichia coli (strain K12))	9
Nc1c(C(=O)Nc2ccc(F)cc2)sc2nc(-c3ccncc3)ccc12	ecNadD (Escherichia coli (strain K12))	80
O=C(CCC(=O)Nc1ccc(Br)cc1)N/N=C/c1ccc(F)cc1	ecNadD (Escherichia coli (strain K12))	47
O=C(CCC(=O)Nc1ccc(I)cc1)N/N=C/c1cccc(Br)c1	ecNadD (Escherichia coli (strain K12))	78
Nc1c(C(=O)Nc2ccc(F)c(Cl)c2)sc2nc(-c3ccc(F)cc3)ccc12	ecNadD (Escherichia coli (strain K12))	52
Cc1cccc(N/C=C2\C(=O)Nc3ccccc32)c1	ecNadD (Escherichia coli (strain K12))	8
O=C1Nc2ccccc2/C1=C/NCc1cccnc1	ecNadD (Escherichia coli (strain K12))	17
O=C(CCC(=O)Nc1ccc(Br)cc1)N/N=C/C=C/c1ccccc1	ecNadD (Escherichia coli (strain K12))	68
COC(=O)c1ccccc1N/C=C1\C(=O)Nc2ccccc21	ecNadD (Escherichia coli (strain K12))	14
Nc1c(C(=O)Nc2ccc(F)cc2F)sc2nc(-c3ccncc3)ccc12	ecNadD (Escherichia coli (strain K12))	0
O=C1Nc2ccccc2/C1=C/Nc1ccc(F)cc1F	ecNadD (Escherichia coli (strain K12))	10
Nc1c(C(=O)Nc2ccc(F)cc2F)sc2nc(-c3cccs3)ccc12	ecNadD (Escherichia coli (strain K12))	69
CC(C)N/C=C1\C(=O)Nc2ccccc21	ecNadD (Escherichia coli (strain K12))	4
Cc1cccc(N/C=C2\C(=O)Nc3ccccc32)n1	ecNadD (Escherichia coli (strain K12))	11
Nc1c(C(=O)Nc2ccc(Cl)cc2F)sc2nc(-c3ccc(F)cc3)ccc12	ecNadD (Escherichia coli (strain K12))	32
CSc1cccc(N/C=C2\C(=O)Nc3ccccc32)c1	ecNadD (Escherichia coli (strain K12))	11
Cc1c(Cl)cccc1N/C=C1\C(=O)Nc2ccccc21	ecNadD (Escherichia coli (strain K12))	12
Cc1ccc(N/C=C2\C(=O)Nc3ccccc32)c(Cl)c1	ecNadD (Escherichia coli (strain K12))	11
Nc1c(C(=O)Nc2cccc(Cl)c2Cl)sc2nc(-c3cccs3)ccc12	ecNadD (Escherichia coli (strain K12))	73
Cc1cc(C)cc(N/C=C2\C(=O)Nc3ccccc32)c1	ecNadD (Escherichia coli (strain K12))	10
CC(C)c1ccc(N/C=C2\C(=O)Nc3ccccc32)cc1	ecNadD (Escherichia coli (strain K12))	7
Nc1c(C(=O)Nc2ccc(F)c(F)c2)sc2nc(-c3ccncc3)ccc12	ecNadD (Escherichia coli (strain K12))	7
O=C(CCC(=O)Nc1cccc(Br)c1)N/N=C/c1ccc(I)cc1	ecNadD (Escherichia coli (strain K12))	41
O=C(CCC(=O)Nc1ccc(F)cc1)N/N=C/c1ccc(O)cc1	ecNadD (Escherichia coli (strain K12))	42
CCc1ccccc1N/C=C1\C(=O)Nc2ccccc21	ecNadD (Escherichia coli (strain K12))	8
Cc1cccc(N/C=C2\C(=O)Nc3ccccc32)c1C	ecNadD (Escherichia coli (strain K12))	13
CN(C)c1ccc(N/C=C2\C(=O)Nc3ccccc32)cc1	ecNadD (Escherichia coli (strain K12))	19
O=C(CCC(=O)Nc1ccccc1Br)N/N=C/c1c2ccccc2cc2ccccc12	ecNadD (Escherichia coli (strain K12))	79
CSc1ccc(N/C=C2\C(=O)Nc3ccccc32)cc1	ecNadD (Escherichia coli (strain K12))	12
Nc1c(C(=O)Nc2ccc(Cl)cc2)sc2nc(-c3ccc(F)cc3)ccc12	ecNadD (Escherichia coli (strain K12))	68
O=C(CCC(=O)Nc1cccc(Br)c1)N/N=C/c1c2ccccc2cc2ccccc12	ecNadD (Escherichia coli (strain K12))	90
O=C1Nc2ccccc2/C1=C/Nc1ccccc1Br	ecNadD (Escherichia coli (strain K12))	8
CC(=O)c1ccc(N/C=C2/C(=O)Nc3ccccc32)cc1	ecNadD (Escherichia coli (strain K12))	0
